The origin of these recorded values is patent US11214803B2.

Here, each record is paired with measured % UTC (Yap1 mRNA) data.
System: Yap1 mRNA
TEST_METHOD_NOTES: Dose-dependent inhibition of human Yap1 in SNU-449 cells (Example 9, RTS36584)
Assay type: cell-based
CONDITION_INFO: 125.0 nM, free uptake, approximately 48 hours
Strand notation (5' to 3'): a small letter for the sugar, then the base; units joined by * are phosphorothioate-linked, units joined directly phosphodiester-linked; [ ] holds rarer units or linkages, { } end groups; capitals alone tell only the bases. e = 2'-O-(2-methoxyethyl) (MOE); k = constrained ethyl (cEt); [5mC] = 5-methylcytosine; d = 2'-deoxy (DNA); m = 2'-O-methyl

1198895 (kG*kG*dA*dA*dA*dT*dT*dG*dT*d[5mC]*dT*k[5mC]*dA*kT*dG*k[5mC]; antisense) [compound 1198895] | 37 % UTC
1197215 (kA*kA*kG*dT*dG*dT*dA*dT*dG*dT*d[5mC]*dA*dG*kA*kA*kG) [compound 1197215] | 31 % UTC
1198904 (kT*kA*dT*dT*dA*dG*dA*dG*dT*dA*dT*kG*dT*kG*dG*k[5mC]; antisense) [compound 1198904] | 36 % UTC
1198290 (kT*kG*kG*dA*dA*dA*dT*dT*dG*dT*d[5mC]*dT*k[5mC]*eA*kT*eG; antisense) [compound 1198290] | 39 % UTC
1197270 (TTAAAGTGTATGTCAG; cEt gapmer with 2'-OMe nucleoside, phosphorothioate, further chemistry not given here) [compound 1197270] | 23 % UTC
1198355 (kA*kA*kA*dG*dT*dG*dT*dA*dT*dG*dT*d[5mC]*kA*eG*kA*eA; antisense) [compound 1198355] | 34 % UTC
1198818 (kT*kA*dT*dT*dA*dG*dA*dG*dT*dA*dT*kG*eT*kG*eG*k[5mC]) [compound 1198818] | 33 % UTC
1198624 (kA*k[5mC]*kT*dA*dA*dG*dT*dA*dA*dG*dG*dT*kT*kT*k[5mC]*e[5mC]; antisense) [compound 1198624] | 37 % UTC
1198529 (kT*kT*dA*dA*dA*dG*dT*dG*dT*dA*dT*eG*kT*e[5mC]*kA*eG; antisense) [compound 1198529] | 69 % UTC
1198596 (k[5mC]*kT*k[5mC]*dT*dT*dA*dT*dA*dT*dG*dG*dT*kT*kT*kT*eG; antisense) [compound 1198596] | 40 % UTC

Return % UTC (Yap1 mRNA) measured with Yap1 mRNA given this substance: 1197217 (kT*kT*kA*dA*dA*dG*dT*dG*dT*dA*dT*dG*dT*k[5mC]*kA*kG) [compound 1197217]
39 % UTC

Return % UTC (Yap1 mRNA) measured with Yap1 mRNA given this substance: 1198605 (GTAATATTGCAATCTG; modified gapmer, further chemistry not given here) [compound 1198605]
27 % UTC

Return % UTC (Yap1 mRNA) measured with Yap1 mRNA given this substance: 1197312 (kT*kG*kT*dA*mU*dG*dT*d[5mC]*dA*dG*dA*dA*dG*kA*kG*kT; antisense) [compound 1197312]
58 % UTC
